- Test system: IGROV1 ovarian
- measurementProtocol: NCI tumour cell line growth inhibition, 48 h
GI50 values for the compounds below.

Quick note, GI50 for NC1=CC(=O)c2cccnc2C1=O landed at 1.28 µM

Quick note, GI50 for CSc1ccc(-c2ccccc(=O)c2O)cc1 landed at 0.427 µM

Quick note, GI50 for COc1cc(/C=C2\C[C@H]3[C@@H]4CC=C5C[C@@H](O)CC[C@]5(C)[C@H]4CC[C@]3(C)[C@H]2O)ccc1OCCN1CCCC1 landed at 17.5 µM

Quick note, GI50 for C[C@]12CCc3nc(Nc4cccc(O)c4)sc3C1=CC[C@@H]1[C@@H]2CC[C@]2(C)/C(=N\NC(N)=S)CC[C@@H]12 landed at 2.31 µM

Quick note, GI50 for O=S(=O)([O-])c1ccc(N=Cc2ccccc2[O-])cc1.O=S(=O)([O-])c1ccc(N=Cc2ccccc2[O-])cc1.[O]=[U+2]=[O] landed at 83.8 µM

Quick note, GI50 for CC1(C)N=C(N)N=C(N)N1c1ccc(CCCCc2ccccc2)c(Cl)c1 landed at < 0.0185 µM
